Entries and their GI50
# System: SNB-19
# Experimental Protocol: NCI tumour cell line growth inhibition, 48 h
Activity calls are given as the source filed them. Rule as the data show it: active = GI50 up to about 1.1 µM and inactive = higher.

Molecule: COc1ccc(C(CC(=O)c2ccc(O)cc2)C(C(=O)c2ccc(O)cc2)C(c2ccc(OC)cc2)C2C(=O)NC(=S)NC2=O)cc1 (stereo not given)
Assayed Target: SNB-19
Quantity: GI50
Measured Result: 21.8 µM (inactive)

GI50 value, target or system SNB-19, for CN1CCc2cc3c(c4c2C1C(O)c1ccccc1-4)OCO3 (stereo not given) : 10.6 µM (inactive)

GI50 value, target or system SNB-19, for "[N-]=[N+]=Nc1c(Cc2ccccc2)c(=O)oc2ccccc12" : 27.2 µM (inactive)

GI50 value, target or system SNB-19, for CC1=NN(C(=O)CC(=O)N(C(=O)c2ccccc2)c2ccc(Cl)cc2)C(=O)C1/N=N/c1ccc([N+](=O)[O-])cc1 (stereo not given) : > 10 µM (inactive)

GI50 value, target or system SNB-19, for "Cc1cc2c(cc1C)[n+]([O-])c(-c1c(Cl)cccc1Cl)c(N)[n+]2[O-]" : 25.5 µM (inactive)
